# Measurement target: panel of more than 300 wild-type and mutant kinases (313 kinase panel) (Homo sapiens)
# Sequence (Q07912 whole entry, change not shown): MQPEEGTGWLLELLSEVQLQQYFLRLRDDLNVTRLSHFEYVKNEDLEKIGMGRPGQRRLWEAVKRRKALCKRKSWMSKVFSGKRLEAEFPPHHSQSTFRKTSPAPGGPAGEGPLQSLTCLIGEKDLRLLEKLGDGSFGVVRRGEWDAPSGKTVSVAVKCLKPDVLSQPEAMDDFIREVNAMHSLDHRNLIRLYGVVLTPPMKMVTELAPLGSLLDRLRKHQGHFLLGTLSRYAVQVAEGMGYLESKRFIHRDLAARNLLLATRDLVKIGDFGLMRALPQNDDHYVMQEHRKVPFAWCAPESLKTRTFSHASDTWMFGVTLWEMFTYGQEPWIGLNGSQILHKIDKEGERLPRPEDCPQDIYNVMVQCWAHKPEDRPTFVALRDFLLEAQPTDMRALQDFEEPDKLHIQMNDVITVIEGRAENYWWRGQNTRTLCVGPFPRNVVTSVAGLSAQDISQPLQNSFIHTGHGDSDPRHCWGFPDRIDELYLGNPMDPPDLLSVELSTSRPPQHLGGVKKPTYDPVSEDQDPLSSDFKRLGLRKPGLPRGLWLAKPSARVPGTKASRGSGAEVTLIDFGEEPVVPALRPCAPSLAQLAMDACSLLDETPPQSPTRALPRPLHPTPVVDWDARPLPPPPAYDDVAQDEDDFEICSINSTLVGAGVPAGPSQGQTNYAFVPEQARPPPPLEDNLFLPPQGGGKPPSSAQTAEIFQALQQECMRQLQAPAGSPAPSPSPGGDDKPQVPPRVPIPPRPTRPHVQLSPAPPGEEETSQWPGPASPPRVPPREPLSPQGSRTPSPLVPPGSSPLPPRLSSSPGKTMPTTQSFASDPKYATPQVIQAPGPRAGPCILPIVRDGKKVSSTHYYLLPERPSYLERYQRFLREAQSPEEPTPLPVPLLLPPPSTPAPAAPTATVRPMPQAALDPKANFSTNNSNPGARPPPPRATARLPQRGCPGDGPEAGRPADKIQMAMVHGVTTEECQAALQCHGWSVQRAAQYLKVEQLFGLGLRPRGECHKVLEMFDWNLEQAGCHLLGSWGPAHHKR
# Protocol: Kinase profiling in a biochemical assay panel (mobility shift assays and ELISA), %-inhibition at 1 μM; selectivity entropy
# Reported conditions: kinase ACK; 1 μM compound
Measured quantity: %-inhibition, ACK

Look over these answered cases.
COc1cc(Nc2c(C#N)cnc3cc(OCCCN4CCN(C)CC4)c(OC)cc23)c(Cl)cc1Cl [bosutinib] :: 97%
Cc1ccc(C(=O)Nc2ccc(CN3CCN(C)CC3)c(C(F)(F)F)c2)cc1C#Cc1cnc2cccnn12 [ponatinib] :: 99%
COc1cc2nccc(Oc3ccc(NC(=O)C4(C(=O)Nc5ccc(F)cc5)CC4)cc3)c2cc1OC [cabozantinib] :: 30%

For reference, reported %-inhibition, ACK for N#CC[C@H](C1CCCC1)n1cc(-c2ncnc3[nH]ccc23)cn1 [ruxolitinib] stands at 93%
